Test: in vitro
Settings: human, HCMV CPE Inhibition CC50
Quantity kind: CC50 at 14 days (µg/mL)
Numeric only. Scale: µg/mL

## Task Record request: CC50 at 14 days value, item O=c1cc(-c2ccc(Oc3c(O)cc4oc(-c5ccc(O)cc5)cc(=O)c4c3O)cc2)oc2cc(O)cc(O)c12
## Result 2.6

====

Assay: in vitro
Settings: dog, Neutral Red IC50 (cytotoxic), Influenza A (H1N1) test
Quantity kind: IC50 (µg/mL)
Numeric only. Scale: µg/mL

O=c1cc(-c2ccc(Oc3c(O)cc4oc(-c5ccc(O)cc5)cc(=O)c4c3O)cc2)oc2cc(O)cc(O)c12 [Hinokiflavone (4), hinokiflavone]	2

Turning now to a further compound:
## Task Record request: IC50 value, item O=C1CC(c2ccc(O)cc2)Oc2cc(O)c(-c3c(O)cc(O)c4c3OC(c3ccc(O)cc3)CC4=O)c(O)c21 (stereo not drawn) [Rhusflavanone (9), rhusflavanone]
## Result 26

Hey, just so you know, these numbers are from patent US6399654B1.
